Parameter EC50 [µM], FXa generation assay: see the listing below.
TESTED_ON: human Factor IXa (human, UniProt P00740 47-191; P00740 227-461)
TEST: cell-based or functional assay
Bridge positions count the residues as written; N and C are the ends. Square brackets hold non-standard residues; d marks the D form. Primed or numbered codes have the meaning given here. Side chains are listed from the residue outwards. Ends that are not written are not given here. * marks the point of attachment. Biotin = O=C1N[C@H]2[C@H](CS[C@H]2CCCCC(=O)*)N1; NMeW = CN[C@@H](Cc1c[nH]c2ccccc12)C(=O)O; NMeR = CN[C@@H](CCCNC(=N)N)C(=O)O; NMeL = CN[C@@H](CC(C)C)C(=O)O; PEG16″ = not defined here; PEG2″ = not defined here

BINDER	EC50 [µM], FXa generation assay
RRAPGKLTCLASYCWLFQTGWAYWGYRQHPGS [RRAPGKLTCLASYCWLF QTGWA YWGYRQHPGS]	< 0.5 µM
NPTCQASYCQLF	> 20 µM
NGGMQKPACLASQCWLFANPLP	> 1 µM
KLTCLXSYCWLF (not fully specified; Aib 6) [KLTCL-Aib-SYCWLF]	> 20 µM
RRFVGGSLSQRRAPGKLTCLASYCWLFWTGIA [RRFVGGSLSQ RRAPG KLTCLASYCWLFWTGIA]	< 0.5 µM
RRAPGKLTKLASYDWLFWTGIA-OH [RRAPGKLT-Lys-LASY-Asp-WLFWTGIA-COOH]	> 10 µM
[PEG16″]K([PEG2″-Biotin])[PEG16″][dR]RAPGKLTCLASYCWLFWTGIA (cysteine pairing not given here) [PEG16-Lys(PEG2-Biotin)-PEG16-rRAPGKLTCLASYCWLFWTGIA]	> 1 µM
RRAPGKLTCLASYCWLK([PEG2″-Biotin])WTGIA (not fully specified; printed as RRAPGKLTCLASYCWLK(PEG2-Biotin)WTGIA; cysteine pairing not given here) [RRAPGKLTCLASYCWLK(PEG2-Biotin)WTGIA]	> 1 µM
R[NMeR]APGKLTCLASYCWLFWTGIA (disulfide 9-14 (inferred); not fully specified (C-terminus); printed as R-MeArg-APGKLTCLASYCWLFWTGIA) [R-MeArg-APGKLTCLASYCWLFWTGIA]	< 0.5 µM
RRAPGKLTCLASYC[NMeW]LFWTGIA (cysteine pairing not given here) [RRAPGKLTCLASYC-MeTrp-LFWTGIA]	> 10 µM
RRAPGK[NMeL]TCLASYCWLFWTGIA (not fully specified (bridges); printed as RRAPGK-MeLeu-TCLASYCWLFWTGIA; cysteine pairing not given here) [RRAPGK-MeLeu-TCLASYCWLFWTGIA]	> 1 µM
KLTCLASYCALF	> 1 µM
